// values below are pKi; system is Adenosine receptor A1 (Rattus norvegicus, UniProt P25099)
Sequence (P25099 whole entry): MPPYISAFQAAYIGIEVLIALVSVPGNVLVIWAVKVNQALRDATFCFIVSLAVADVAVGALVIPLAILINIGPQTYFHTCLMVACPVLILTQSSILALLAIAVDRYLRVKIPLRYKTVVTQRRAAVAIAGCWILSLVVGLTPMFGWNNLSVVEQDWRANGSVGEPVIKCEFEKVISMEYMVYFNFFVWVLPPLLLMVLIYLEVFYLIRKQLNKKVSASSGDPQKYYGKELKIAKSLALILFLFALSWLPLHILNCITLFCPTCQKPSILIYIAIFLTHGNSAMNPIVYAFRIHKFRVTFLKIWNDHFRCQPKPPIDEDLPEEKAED
Give bare numbers, as −log10 of the molar value.

Please look at the items below and tell me pKi for each one, in order.
1. Nc1nc2nn(Cc3ccc(F)cc3)nc2c2nc(-c3ccco3)nn12
2. CCCCn1ncc2c1nc(N)n1nc(-c3ccco3)nc21
3. Nc1nc2c(nnn2CCc2ccccc2)c2nc(-c3ccco3)nn12

Reply |
[7.74, 6.63, 7.37]

###

// values below are Ki; system is Adenosine receptor A2a (Rattus norvegicus, UniProt P30543)
Sequence (P30543 whole entry): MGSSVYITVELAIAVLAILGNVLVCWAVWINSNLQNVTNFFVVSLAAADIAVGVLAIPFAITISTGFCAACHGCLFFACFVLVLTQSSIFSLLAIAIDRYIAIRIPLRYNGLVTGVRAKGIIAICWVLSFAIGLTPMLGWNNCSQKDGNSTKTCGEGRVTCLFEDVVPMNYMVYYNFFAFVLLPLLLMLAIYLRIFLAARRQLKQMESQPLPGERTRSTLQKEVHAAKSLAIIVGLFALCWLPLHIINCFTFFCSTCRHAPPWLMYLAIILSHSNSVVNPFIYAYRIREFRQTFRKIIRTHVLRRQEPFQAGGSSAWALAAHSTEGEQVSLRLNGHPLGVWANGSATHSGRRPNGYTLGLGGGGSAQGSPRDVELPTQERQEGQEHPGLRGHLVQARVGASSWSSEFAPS
I'd appreciate it if you included the unit after the number.

molecular string	Ki
CC(C)CCn1ncc2c1nc(N)n1nc(-c3ccco3)nc21	12 nM
Nc1nc2c(nnn2Cc2ccccc2)c2nc(-c3ccco3)nn12	4.6 nM

Please look at the items below and tell me Ki for each one, in order.
1. CCCCn1ncc2c1nc(N)n1nc(-c3ccco3)nc21
2. Nc1nc2c(nnn2Cc2ccccc2F)c2nc(-c3ccco3)nn12

Reply |
1: 8.9 nM; 2: 10.4 nM

Please look at the items below and tell me Ki for each one, in order.
1. Nc1nc2nn(Cc3ccc(F)cc3)cc2c2nc(-c3ccco3)nn12
2. CCCCn1cc2c(nc(N)n3nc(-c4ccco4)nc23)n1

Reply |
["1.2 nM", "2.4 nM"]
